- Test system: Escherichia coli
- experimentalProtocol: Antimicrobial activity against Escherichia coli assessed as inhibition of growth incubated for 18 hrs by CLSI guidelines based assay
- Assay type: functional
Provide the reported MIC of each item.
I'd appreciate it if you included the unit after the number.

Below are worked cases with known answers.
Determine reported MIC for `CCCCCCCCCC[N+](C)(C)CCCCCOc1cc(OCCCCC[N+](C)(C)CCCCCCCCCC)cc(OCCCCC[N+](C)(C)CCCCCCCCCC)c1.[Br-].[Br-].[Br-]` ; test system: Escherichia coli. 4 µg/mL

Determine reported MIC for `CCCCCCCC[N+](C)(C)CCCCOc1ccc(OCCCC[N+](C)(C)CCCCCCCC)c(OCCCC[N+](C)(C)CCCCCCCC)c1.[Br-].[Br-].[Br-]` ; test system: Escherichia coli. 2 µg/mL

Now for another entry.
Determine reported MIC for `C[N+](C)(CCCCOc1cc(OCCCC[N+](C)(C)CCCCc2ccccc2)cc(OCCCC[N+](C)(C)CCCCc2ccccc2)c1)CCCCc1ccccc1.[Br-].[Br-].[Br-]` ; test system: Escherichia coli. 64 µg/mL
